Test system: Echinochloa crus-galli (ECHCG)
Assay: Test 1 glasshouse assay, post-emergence herbicidal activity
Assay type: in vivo
Conditions: 312 h, post-emergence (Example 1B Table 1), 250 g/ha, after 13 days, read-out: Percentage phytotoxicity ECHCG
Can you tell me pest or weed control at 250 g/ha for the items I'm about to list?
Unit % implied. Number only.

Ask: Read the entry C#CCC1CC(=O)C(c2c(F)cc(-c3ccc(F)cc3)cc2OC)C1=O (stereo not shown) [Compound A20] and write its reported pest or weed control at 250 g/ha.
Reply: 100

Ask: Read the entry C#CCC1CC(=O)C(c2c(F)cc(-c3ccc(Cl)cn3)cc2Cl)C1=O (stereo not shown) [Compound A8] and write its reported pest or weed control at 250 g/ha.
Reply: 100

Ask: Read the entry C#CCC1CC(=O)C(c2c(C)cc(-c3ccc(Cl)cn3)cc2C)C1=O (stereo not shown) [Compound A2] and write its reported pest or weed control at 250 g/ha.
Reply: 100

Ask: Read the entry C#CCC1CC(=O)C(c2cc(-c3ccc(Cl)cn3)ccc2C)C1=O (stereo not shown) [Compound A17] and write its reported pest or weed control at 250 g/ha.
Reply: 80

Ask: Read the entry C#CCC1CC(=O)C(c2c(Cl)cc(-c3ccc(Cl)cc3)cc2OC)C1=O (stereo not shown) [Compound A11] and write its reported pest or weed control at 250 g/ha.
Reply: 100

Ask: Read the entry C#CCC1CC(=O)C(c2ccc(-c3ccc(Cl)cc3)cc2C)C1=O (stereo not shown) [Compound A43] and write its reported pest or weed control at 250 g/ha.
Reply: 20

Ask: Read the entry C#CCC1CC(=O)C(c2c(F)cc(-c3ccc(Cl)cc3)cc2OC)C1=O (stereo not shown) [Compound A14] and write its reported pest or weed control at 250 g/ha.
Reply: 100

Ask: Read the entry C#CCC1C(=O)C(c2cc(-c3ccc(Cl)cc3)ccc2C)C(=O)C1CC#C (stereo not shown) [Compound A44] and write its reported pest or weed control at 250 g/ha.
Reply: 0

Ask: Read the entry C#CCC1CC(=O)C(c2c(C)cc(-c3ncc(Cl)cc3F)cc2C)C1=O (stereo not shown) [Compound A3] and write its reported pest or weed control at 250 g/ha.
Reply: 100

Ask: Read the entry C#CCC1CC(=O)C(c2cc(-c3ncc(Cl)cn3)ccc2C)C1=O (stereo not shown) [Compound A19] and write its reported pest or weed control at 250 g/ha.
Reply: 90

Ask: Read the entry C#CCC1CC(=O)C(c2c(F)cc(-c3ccc(Cl)cc3)cc2Cl)C1=O (stereo not shown) [Compound A6] and write its reported pest or weed control at 250 g/ha.
Reply: 100

Ask: Read the entry C#CCC1CC(=O)C(c2c(C)cc(-n3cc(Cl)cn3)cc2C)C1=O (stereo not shown) [Compound A9] and write its reported pest or weed control at 250 g/ha.
Reply: 100

Ask: Read the entry C#CCC1CC(=O)C(c2c(Cl)cc(-c3ccc(F)cc3F)cc2OC)C1=O (stereo not shown) [Compound A12] and write its reported pest or weed control at 250 g/ha.
Reply: 100

Ask: Read the entry C#CCC1CC(=O)C(c2c(Cl)cc(-c3ccc(F)cc3)cc2OC)C1=O (stereo not shown) [Compound A7] and write its reported pest or weed control at 250 g/ha.
Reply: 100

Ask: Read the entry C#CCC1CC(=O)C(c2c(C)cc(-c3ncc(Cl)cn3)cc2C)C1=O (stereo not shown) [Compound A5] and write its reported pest or weed control at 250 g/ha.
Reply: 100

Ask: Read the entry C#CCC1CC(=O)C(c2c(F)cc(-c3ccc(F)c(F)c3)cc2OC)C1=O (stereo not shown) [Compound A22] and write its reported pest or weed control at 250 g/ha.
Reply: 100
